// data source = PubChem BioAssay AID1159580

# assay_procedure: chemical genetic growth profiling, strain panel (AID 1159580);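 note: tested at 20 µM; growth read once vehicle control cultures reached saturation at 30 °C; lower values mean less growth of the strain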
# condition_info: S. cerevisiae deletion strains, growth OD, locus YGR040W, strain KSS1
About 2,000 (36%) of roughly 5,500 compounds were called active. Inconclusive results (about 18%) are left out. Cut-off read from the data, not from the text of the source: active = normalized growth mostly below about 0.91 (no sharp cut-off); inconclusive = no clear call, values can overlap the other calls; inactive = mostly above about 0.92. This is one part of the list.
Parameter call: string, one of active, inactive

(Q) Could you please tell me the result logged for "Oc1c(Cl)cc(Cl)cc1C=Nc1nc(-c2ccc3ccccc3c2)cs1" in this assay?
(A) inactive

(Q) Would you kindly repeat that for "O=C(ON=C1CCCCC1)c1ccc([N+](=O)[O-])cc1" ?
(A) inactive

(Q) Can you check "Cc1nn(C)c(C(=O)Sc2ccc(OC(F)(F)F)cc2)c1[N+](=O)[O-]" next?
(A) inactive

(Q) Entry "C/C(Cc1nnn(-c2cc(C)on2)n1)=N/OC(=O)Nc1ccc(Cl)cc1" please
(A) inactive

(Q) Repeat with "O=[N+]([O-])c1ccc(ON=C2CCCCC2)c([N+](=O)[O-])c1"
(A) inactive

(Q) What do we get for COc1ccc(C(CC(=O)c2ccccc2)Sc2ccccc2N)cc1OC (stereo not given) ?
(A) inactive

(Q) Another compound to look at: "Cc1c(C(=O)Sc2ccc(F)cc2F)sc2nc(C(F)(F)F)nn12"
(A) active

(Q) Ok, now "Cc1ccc(S(=O)(=O)NC(=O)Nc2ccc(Sc3ccccc3)nc2Sc2ccccc2)cc1"
(A) inactive

(Q) Next compound up: "Cc1cc(C)cc(Sc2ccc3nnc(-c4ccccc4)n3n2)c1"
(A) inactive

(Q) Try this compound next: "CCCN(CCC)C(=S)NC(=O)c1cccc([N+](=O)[O-])c1"
(A) inactive
